B1: CPEB3 Ribozyme (parent)
chain: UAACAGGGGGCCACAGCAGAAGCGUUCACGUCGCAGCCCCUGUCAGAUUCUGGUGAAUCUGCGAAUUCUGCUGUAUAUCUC

variants of: B1; assay: self-cleavage, relative activity (ratio to wild type); higher = more cleavage; in vitro, sequencing
Entries and their self-cleavage
Respond using a number only.

// solved cases for self-cleavage follow
# sequence input, self-cleavage
measured = [
    ("UAACAGGGGGCCACAGCAGAGGCGUUCACGUCGCAGCCCCUGUCAGAUUCUGGUGAAUCUGCGAAUUCUGCCGUAUAUCUC", 0.65),
    ("UAUCAGGGGGCCACAGCAGAAGCGUUCACGUCGCAACCCCUGUCAGAUUCUGGUGAAUCUGCGAAUUCUGCUGUAUAUCUC", 0.32),
    ("UAACAGUGGGCCACAGCAGAAGCGUUCACGUCGCAGCCCCUGUCAGAUUCUGGUGAAUCUGCGCAUUCUGCUGUAUAUCUC", 0.13),
    ("UAACAGGGGGCCACAGCAGAAGCGUUCACGUCGCAGCCCCUGUCAGAUUCUGGUGAGUCUGCGAAUUCUGCUGUAUAGCUC", 1.12),
    ("UAACAGGGGGCCACAGCAGAAGCGUUCACGUCGCAGCCCCUGUCAGAUUCUGGUGAAUCUGCGAGUUCUGCUGUAUAUCUU", 0.63),
]

[in] Provide measured self-cleavage value, entry: UAACAGGGGGCCACAGCAGAAGCGUUCAUGUCGCAGCCCCUGUCAGAUUCUGGUGAAUCUGCGCAUUCUGCUGUAUAUCUC
[out] 0.24

[in] Provide measured self-cleavage value, entry: UAACAGGGGGCCACAGCAGAAGCGUUCACGUCGCCGCCCCUGUCAGAUUCAGGUGAAUCUGCGAAUUCUGCUGUAUAUCUC
[out] 1
